Reference source: the supplement of paper PMC11061612

Test system: RERF-GC-1B (Gastric Carcinoma)
Assay: combination Emax (second highest fraction inhibited in the dose matrix, 72 h); higher = more inhibition; extreme values may be limits of the assay
observation type: combination Emax
Answer as a number with no unit attached.

{"molecule": "CC(=O)c1c(C)c2cnc(Nc3ccc(N4CCNCC4)cn3)nc2n(C2CCCC2)c1=O [Palbociclib] + Cn1cnc2c(F)c(Nc3ccc(Br)cc3Cl)c(C(=O)NOCCO)cc21 [Selumetinib] (first compound max 10 µM, 7x7, partner max 10 µM)", "combination Emax": 0.333}

// field: combination Emax; key: COc1cc2c(cc1OCCCCCOc1cc3c(cc1OC)C(=O)N1C=C(C)C[C@H]1C=N3)N=C[C@@H]1CC(C)=CN1C2=O [SG3199] + O=C(c1cc(Cc2n[nH]c(=O)c3ccccc23)ccc1F)N1CCN(C(=O)C2CC2)CC1 [Olaparib] (first compound max 0.001 µM, 7x7, partner max 10 µM) ; value = 0.245

// field: combination Emax; key: COc1nnc2ccc(N3CCC(c4ccc(OCCN5CCN(C)C(=O)[C@H]5C)cc4)CC3)nn12 [AZD5153] + Cc1c2c(nn1C)CSCc1cc(n(C)n1)CSc1cc(c3ccccc3c1)OCCCc1c(C(=O)O)n(C)c3c-2c(Cl)ccc13 [AZD5991] (first compound max 1 µM, 7x7, partner max 1 µM) ; value = 0.985

// field: combination Emax; key: COc1cccc(OCCCN)c1-c1cc(Nc2cnc(C#N)cn2)n[nH]1 [Prexasertib] + C[C@@H]1COCCN1C2=NC(=NC(=C2)C3(CC3)[S@](=N)(=O)C)C4=C5C=CNC5=NC=C4 [AZD6738] (first compound max 1 µM, 7x7, partner max 10 µM) ; value = 0.543

----------
System: MFE-280 (Endometrial Carcinoma);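 further: after 72 h of two-drug dosing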
Assay: Bliss excess, mean over the matrix (fraction); higher = more synergy
Give 1.0 when the value for Bliss excess is at least -0.01. Give 0.0 when it is less.

{"compound": "Cc1c2c(nn1C)CSCc1cc(n(C)n1)CSc1cc(c3ccccc3c1)OCCCc1c(C(=O)O)n(C)c3c-2c(Cl)ccc13 [AZD5991] + Cn1cnc2c(F)c(Nc3ccc(Br)cc3Cl)c(C(=O)NOCCO)cc21 [Selumetinib] (first compound max 1 µM, 7x7, partner max 3 µM)", "class assignment": 1.0}
{"compound": "CC1(C)CCC(CN2CCN(c3ccc(C(=O)NS(=O)(=O)c4ccc(NCC5CCOCC5)c([N+](=O)[O-])c4)c(Oc4cnc5[nH]ccc5c4)c3)CC2)=C(c2ccc(Cl)cc2)C1 [Venetoclax] + C=CCn1c(=O)c2cnc(Nc3ccc(N4CCN(C)CC4)cc3)nc2n1-c1cccc(C(C)(C)O)n1 [AZD1775] (first compound max 1 µM, partner max 1 µM)", "class assignment": 1.0}
{"compound": "Cc1cc2ncnn2cc1Nc1ncc2c(n1)n(C1CCOCC1)c(=O)n2C [AZD7648] + O=C(c1cc(Cc2n[nH]c(=O)c3ccccc23)ccc1F)N1CCN(C(=O)C2CC2)CC1 [Olaparib] (first compound max 10 µM, 7x7, partner max 10 µM)", "class assignment": 1.0}

Query compound follows.
Asked: Assess whether reported Bliss excess for COc1cccc(OCCCN)c1-c1cc(Nc2cnc(C#N)cn2)n[nH]1 [Prexasertib] + CN(C)CCCOc1ccc(-c2ccc3ncc4c(c3c2)n(C2CCOCC2)c(=O)n4C)cn1 [AZD0156] (first compound max 1 µM, 7x7, partner max 1 µM) sits at -0.01 or higher.
Given back: 0.0
